Ref: ChEMBL document CHEMBL4715812

Species on record: Homo sapiens
PROTOCOL_SUMMARY: Covalent modification of GAB-buffer assembled microtubule (unknown origin) assessed as effect on nucleotide binding affinity at E-site by measuring ratio of GDP concentration to microtubule concentration incubated for 30 mins in presence or absence of 1 mM GTP and measured after 20 mins by HPLC analysis (reference value: 1)

| COMPOUND_STRUCTURE | Ratio |
| --- | --- |
| CC1=C[C@H]2[C@@H](O)[C@H](C)[C@@H](O)[C@@H]2[C@H]2[C@@H]3C4=C5O[C@@](C)(CC[C@H](OC4=O)[C@@H]5C)[C@@H]3C[C@@H]12 | 0.97 |
| C=C1C[C@H]2C/C=C/C(=O)C/C(C)=C\C=C\C(=O)O[C@@H](C=O)C/C(C)=C/[C@@H](C1)O2 | 0.84 |
| CC(=O)O[C@@]12CO[C@@H]1C[C@H](O)[C@@]1(C)C(=O)[C@H](O)C3=C(C)[C@@H](OC(=O)[C@H](O)[C@@H](NC(=O)OC(C)(C)C)c4ccccc4)C[C@@](O)([C@@H](OC(=O)c4ccccc4)[C@H]21)C3(C)C | 1.03 |
| C=C1C[C@@H]2C/C=C/C(=O)C/C(C)=C\C=C\C(=O)O[C@H]([C@H](O)NC(=O)/C=C\C=C\C)C/C(C)=C/[C@H](C1)O2 | 0.84 |
